# System: Staphylococcus aureus
# Test: Antibacterial activity against Staphylococcus aureus ATCC 25923 after 24 hrs by disc diffusion method
# Format: functional
# Protocol Conditions: ATCC 25923, 24 h

Molecule | Target Desc | MIC [µg/mL]
CSc1ccc(Cc2nn(CN3CCN(C)CC3)c(=S)n2/N=C/c2ccc(F)cc2)cc1 | Staphylococcus aureus | 25
O=C(O)c1cn(C2CC2)c2cc(N3CCNCC3)c(F)cc2c1=O [CIPROFLOXACIN] | Staphylococcus aureus | 12.5
CSc1ccc(Cc2nn(CN3CCOCC3)c(=S)n2/N=C/c2ccc(C)cc2)cc1 | Staphylococcus aureus | 25
CSc1ccc(Cc2nn(CN3CCN(C)CC3)c(=S)n2/N=C/c2ccc3c(c2)OCO3)cc1 | Staphylococcus aureus | 25
CSc1ccc(Cc2nn(CN3CCOCC3)c(=S)n2/N=C/c2ccc(Cl)cc2)cc1 | Staphylococcus aureus | 25
CSc1ccc(Cc2nn(CN3CCOCC3)c(=S)n2/N=C/c2ccc(F)cc2)cc1 | Staphylococcus aureus | 25

* * *

Listing of recorded zone of inhibition at 10 µg/mL by entry.
# System: Escherichia coli
# Test: Antibacterial activity against Escherichia coli ATCC 25922 after 24 hrs at 10 ug/ml by disc diffusion method
# Format: functional
# Protocol Conditions: ATCC 25922, 24 h, read-out: IZ

Compound | zone of inhibition at 10 µg/mL
CSc1ccc(Cc2nn(CN3CCOCC3)c(=S)n2/N=C/c2ccc(Cl)cc2)cc1 | 10 mm
CSc1ccc(Cc2nn(CN3CCN(C)CC3)c(=S)n2/N=C/c2ccc3c(c2)OCO3)cc1 | 12 mm
CSc1ccc(Cc2nn(CN3CCOCC3)c(=S)n2/N=C/c2ccc(C)cc2)cc1 | 10 mm
CSc1ccc(/C=N/n2c(Cc3ccc(SC)cc3)nn(CN3CCOCC3)c2=S)cc1 | 12 mm
CSc1ccc(Cc2nn(CN3CCN(C)CC3)c(=S)n2/N=C/c2ccc(F)cc2)cc1 | 12 mm
CSc1ccc(/C=N/n2c(Cc3ccc(SC)cc3)nn(CN3CCN(C)CC3)c2=S)cc1 | 10 mm

* * *

# Tested on: Pseudomonas aeruginosa
# Test: Antibacterial activity against Pseudomonas aeruginosa ATCC 27853 after 24 hrs by disc diffusion method
# Format: functional
# Protocol Conditions: ATCC 27853, 24 h
Value Type: MIC (µg/mL)

Compound | Units Label | Observed Result
O=C(O)c1cn(C2CC2)c2cc(N3CCNCC3)c(F)cc2c1=O | µg/mL | 6
CSc1ccc(Cc2nn(CN3CCOCC3)c(=S)n2/N=C/c2ccc(Cl)cc2)cc1 | µg/mL | 12.5
CSc1ccc(/C=N/n2c(Cc3ccc(SC)cc3)nn(CN3CCN(C)CC3)c2=S)cc1 | µg/mL | 12.5
COc1ccc(/C=N/n2c(Cc3ccc(SC)cc3)nn(CN3CCN(C)CC3)c2=S)cc1 | µg/mL | 12.5
CSc1ccc(Cc2nn(CN3CCOCC3)c(=S)n2/N=C/c2ccc3c(c2)OCO3)cc1 | µg/mL | 12.5
CSc1ccc(Cc2nn(CN3CCN(C)CC3)c(=S)n2/N=C/c2ccc(Cl)cc2)cc1 | µg/mL | 6
COc1ccc(/C=N/n2c(Cc3ccc(SC)cc3)nn(CN3CCOCC3)c2=S)cc1 | µg/mL | 12.5
CSc1ccc(Cc2nn(CN3CCN(C)CC3)c(=S)n2/N=C/c2ccc(F)cc2)cc1 | µg/mL | 12.5
CSc1ccc(Cc2nn(CN3CCN(C)CC3)c(=S)n2/N=C/c2ccc(Cl)cc2Cl)cc1 | µg/mL | 6
CSc1ccc(/C=N/n2c(Cc3ccc(SC)cc3)nn(CN3CCOCC3)c2=S)cc1 | µg/mL | 12.5
CSc1ccc(Cc2nn(CN3CCN(C)CC3)c(=S)n2/N=C/c2ccc3c(c2)OCO3)cc1 | µg/mL | 12.5
CSc1ccc(Cc2nn(CN3CCN(C)CC3)c(=S)n2/N=C/c2ccc(C)cc2)cc1 | µg/mL | 12.5
CSc1ccc(Cc2nn(CN3CCOCC3)c(=S)n2/N=C/c2ccc(C)cc2)cc1 | µg/mL | 12.5
CSc1ccc(Cc2nn(CN3CCOCC3)c(=S)n2/N=C/c2ccc(F)cc2)cc1 | µg/mL | 12.5
CSc1ccc(Cc2nn(CN3CCOCC3)c(=S)n2/N=C/c2ccc(Cl)cc2Cl)cc1 | µg/mL | 6

* * *

# Test system: Escherichia coli
# Test: Antibacterial activity against Escherichia coli ATCC 25922 after 24 hrs at 10 ug/ml by disc diffusion method
# Format: functional
# Protocol Conditions: ATCC 25922, 24 h, read-out: IZ
Reported zone of inhibition at 10 µg/mL by item:
Value Type: zone of inhibition at 10 µg/mL (mm)

Compound | Value Type | Observed Result
CSc1ccc(Cc2nn(CN3CCN(C)CC3)c(=S)n2/N=C/c2ccc(C)cc2)cc1 | zone of inhibition at 10 µg/mL | 12
O=C(O)c1cn(C2CC2)c2cc(N3CCNCC3)c(F)cc2c1=O | zone of inhibition at 10 µg/mL | 18
COc1ccc(/C=N/n2c(Cc3ccc(SC)cc3)nn(CN3CCOCC3)c2=S)cc1 | zone of inhibition at 10 µg/mL | 10
CSc1ccc(Cc2nn(CN3CCOCC3)c(=S)n2/N=C/c2ccc(Cl)cc2Cl)cc1 | zone of inhibition at 10 µg/mL | 17
CSc1ccc(Cc2nn(CN3CCOCC3)c(=S)n2/N=C/c2ccc(F)cc2)cc1 | zone of inhibition at 10 µg/mL | 12
COc1ccc(/C=N/n2c(Cc3ccc(SC)cc3)nn(CN3CCN(C)CC3)c2=S)cc1 | zone of inhibition at 10 µg/mL | 10
CSc1ccc(Cc2nn(CN3CCN(C)CC3)c(=S)n2/N=C/c2ccc(Cl)cc2)cc1 | zone of inhibition at 10 µg/mL | 18
CSc1ccc(Cc2nn(CN3CCN(C)CC3)c(=S)n2/N=C/c2ccc(Cl)cc2Cl)cc1 | zone of inhibition at 10 µg/mL | 18
CSc1ccc(Cc2nn(CN3CCOCC3)c(=S)n2/N=C/c2ccc3c(c2)OCO3)cc1 | zone of inhibition at 10 µg/mL | 10

* * *

# Test system: Talaromyces marneffei
# Test: Antifungal activity against Penicillium marneffei at 10 ug/ml after 3 to 4 days by serial dilution method
# Assay type: functional
# Protocol Conditions: read-out: IZ

Compound | zone of inhibition at 10 µg/mL, mm
O=C(O)c1cn(C2CC2)c2cc(N3CCNCC3)c(F)cc2c1=O | 20
CSc1ccc(Cc2nn(CN3CCN(C)CC3)c(=S)n2/N=C/c2ccc(Cl)cc2)cc1 | 20
CSc1ccc(Cc2nn(CN3CCOCC3)c(=S)n2/N=C/c2ccc(Cl)cc2Cl)cc1 | 10
CSc1ccc(Cc2nn(CN3CCN(C)CC3)c(=S)n2/N=C/c2ccc(C)cc2)cc1 | 11
CSc1ccc(Cc2nn(CN3CCOCC3)c(=S)n2/N=C/c2ccc(Cl)cc2)cc1 | 10
CSc1ccc(Cc2nn(CN3CCN(C)CC3)c(=S)n2/N=C/c2ccc(Cl)cc2Cl)cc1 | 18
CSc1ccc(Cc2nn(CN3CCOCC3)c(=S)n2/N=C/c2ccc3c(c2)OCO3)cc1 | 10
CSc1ccc(Cc2nn(CN3CCN(C)CC3)c(=S)n2/N=C/c2ccc3c(c2)OCO3)cc1 | 10
CSc1ccc(/C=N/n2c(Cc3ccc(SC)cc3)nn(CN3CCOCC3)c2=S)cc1 | 12
CSc1ccc(/C=N/n2c(Cc3ccc(SC)cc3)nn(CN3CCN(C)CC3)c2=S)cc1 | 12
CSc1ccc(Cc2nn(CN3CCN(C)CC3)c(=S)n2/N=C/c2ccc(F)cc2)cc1 | 10

* * *

# System: Aspergillus flavus
# Test: Antifungal activity against Aspergillus flavus NICM524 after 3 to 4 days by serial dilution method
# Format: functional
Value Type: MIC (mg/L)

Compound | Observed Result
Cc1cc(C2CCCCC2)n(O)c(=O)c1.NCCO | 12.5
CSc1ccc(Cc2nn(CN3CCOCC3)c(=S)n2/N=C/c2ccc3c(c2)OCO3)cc1 | 25
COc1ccc(/C=N/n2c(Cc3ccc(SC)cc3)nn(CN3CCN(C)CC3)c2=S)cc1 | 25
CSc1ccc(Cc2nn(CN3CCN(C)CC3)c(=S)n2/N=C/c2ccc(F)cc2)cc1 | 25
CSc1ccc(Cc2nn(CN3CCOCC3)c(=S)n2/N=C/c2ccc(C)cc2)cc1 | 25
CSc1ccc(Cc2nn(CN3CCN(C)CC3)c(=S)n2/N=C/c2ccc3c(c2)OCO3)cc1 | 25
CSc1ccc(Cc2nn(CN3CCN(C)CC3)c(=S)n2/N=C/c2ccc(Cl)cc2Cl)cc1 | 12.5
CSc1ccc(/C=N/n2c(Cc3ccc(SC)cc3)nn(CN3CCOCC3)c2=S)cc1 | 25
CSc1ccc(Cc2nn(CN3CCN(C)CC3)c(=S)n2/N=C/c2ccc(C)cc2)cc1 | 25
CSc1ccc(/C=N/n2c(Cc3ccc(SC)cc3)nn(CN3CCN(C)CC3)c2=S)cc1 | 25
COc1ccc(/C=N/n2c(Cc3ccc(SC)cc3)nn(CN3CCOCC3)c2=S)cc1 | 25
CSc1ccc(Cc2nn(CN3CCOCC3)c(=S)n2/N=C/c2ccc(F)cc2)cc1 | 25
CSc1ccc(Cc2nn(CN3CCOCC3)c(=S)n2/N=C/c2ccc(Cl)cc2Cl)cc1 | 25
CSc1ccc(Cc2nn(CN3CCOCC3)c(=S)n2/N=C/c2ccc(Cl)cc2)cc1 | 25
CSc1ccc(Cc2nn(CN3CCN(C)CC3)c(=S)n2/N=C/c2ccc(Cl)cc2)cc1 | 12.5

Origin of measurements: ChEMBL document CHEMBL1147888
